Recorded values, source patent US9096615B2.

# System: Abeta 40
# method_notes: In vivo inhibition of beta-secretase: percent Abeta 40 reduction in CSF and brain
# Parameters: species or system rat
# experimental_setup: Abeta 40, rat CSF, 10 mpk, after 4 hrs; read-out: % reduction of rat CSF levels at 10 pmk
Returns YES if the recorded inhibition in vivo at 10 mg/kg is greater than or equal to 70%, and NO otherwise.

>  <smiles_record>
COc1cnc2c(Nc3ccc(F)c([C@@]4(C)N=C(N)[C@@]5(CF)CC[C@@H]4S5(=O)=O)c3)ncnc2c1

>  <target_under_test>
Abeta 40

>  <answer_label>
YES

$$$$
>  <smiles_record>
C[C@]1(c2cc(Nc3nccc4nc(OCc5ncco5)cnc34)ccc2F)N=C(N)[C@@]2(C)CC[C@@H]1S2(=O)=O

>  <target_under_test>
Abeta 40

>  <answer_label>
NO

$$$$
>  <smiles_record>
C[C@]1(c2cc(Nc3ncnc4cc(C(F)(F)F)cnc34)ccc2F)N=C(N)[C@@]2(CF)CC[C@@H]1S2(=O)=O

>  <target_under_test>
Abeta 40

>  <answer_label>
NO

$$$$
>  <smiles_record>
Cc1cc(Cl)cnc1C(=O)Nc1ccc(F)c([C@@]2(C)N=C(N)[C@@]3(C)CC[C@@H]2S3(=O)=O)c1

>  <target_under_test>
Abeta 40

>  <answer_label>
YES

$$$$
>  <smiles_record>
C[C@]1(c2cc(NC(=O)c3ncc(Cl)cc3Cl)ccc2F)N=C(N)[C@@]2(CF)CC[C@@H]1S2(=O)=O

>  <target_under_test>
Abeta 40

>  <answer_label>
YES

$$$$
>  <smiles_record>
C[C@]1(c2cc(Nc3ncnc4cc(C#N)cnc34)ccc2F)N=C(N)[C@@]2(CF)CC[C@@H]1S2(=O)=O

>  <target_under_test>
Abeta 40

>  <answer_label>
NO

$$$$

Kindly review the next molecule as well.
input: Assess whether reported inhibition in vivo at 10 mg/kg for `Cc1cc(Cl)cnc1C(=O)Nc1ccc(F)c([C@@]2(C)N=C(N)[C@@]3(CF)CC[C@@H]2S3(=O)=O)c1` sits at 70% or higher.
output: YES
